# maps each entry to its pIC50
molecular target: Topoisomerase IV (Staphylococcus aureus, UniProt P0C1S7+P0C1U9); test: Inhibition of Staphylococcus aureus DNA topoisomerase 4 relaxation activity measured for 30 mins
Sequence (P0C1U9 whole entry): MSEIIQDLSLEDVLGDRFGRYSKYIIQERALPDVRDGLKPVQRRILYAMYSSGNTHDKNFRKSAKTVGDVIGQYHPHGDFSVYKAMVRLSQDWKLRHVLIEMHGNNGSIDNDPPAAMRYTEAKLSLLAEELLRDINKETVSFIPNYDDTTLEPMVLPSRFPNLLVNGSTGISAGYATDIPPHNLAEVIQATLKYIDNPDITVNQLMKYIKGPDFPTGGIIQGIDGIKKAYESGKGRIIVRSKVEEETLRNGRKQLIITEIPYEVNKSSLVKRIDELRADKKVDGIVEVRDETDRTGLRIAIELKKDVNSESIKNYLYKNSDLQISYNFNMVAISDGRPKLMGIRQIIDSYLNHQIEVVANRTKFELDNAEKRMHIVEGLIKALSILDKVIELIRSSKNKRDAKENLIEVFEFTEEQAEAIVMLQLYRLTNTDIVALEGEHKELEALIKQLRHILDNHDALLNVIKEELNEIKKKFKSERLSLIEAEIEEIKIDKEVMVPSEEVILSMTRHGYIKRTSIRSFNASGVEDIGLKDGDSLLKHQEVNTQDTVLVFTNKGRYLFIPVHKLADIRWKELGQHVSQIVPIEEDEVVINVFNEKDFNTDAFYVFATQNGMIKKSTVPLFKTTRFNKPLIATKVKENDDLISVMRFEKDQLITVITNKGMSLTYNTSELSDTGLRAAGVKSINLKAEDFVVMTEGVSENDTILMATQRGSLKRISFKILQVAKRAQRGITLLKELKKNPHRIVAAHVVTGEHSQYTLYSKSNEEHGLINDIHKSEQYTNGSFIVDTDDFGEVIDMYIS
Sequence (P0C1S7 whole entry): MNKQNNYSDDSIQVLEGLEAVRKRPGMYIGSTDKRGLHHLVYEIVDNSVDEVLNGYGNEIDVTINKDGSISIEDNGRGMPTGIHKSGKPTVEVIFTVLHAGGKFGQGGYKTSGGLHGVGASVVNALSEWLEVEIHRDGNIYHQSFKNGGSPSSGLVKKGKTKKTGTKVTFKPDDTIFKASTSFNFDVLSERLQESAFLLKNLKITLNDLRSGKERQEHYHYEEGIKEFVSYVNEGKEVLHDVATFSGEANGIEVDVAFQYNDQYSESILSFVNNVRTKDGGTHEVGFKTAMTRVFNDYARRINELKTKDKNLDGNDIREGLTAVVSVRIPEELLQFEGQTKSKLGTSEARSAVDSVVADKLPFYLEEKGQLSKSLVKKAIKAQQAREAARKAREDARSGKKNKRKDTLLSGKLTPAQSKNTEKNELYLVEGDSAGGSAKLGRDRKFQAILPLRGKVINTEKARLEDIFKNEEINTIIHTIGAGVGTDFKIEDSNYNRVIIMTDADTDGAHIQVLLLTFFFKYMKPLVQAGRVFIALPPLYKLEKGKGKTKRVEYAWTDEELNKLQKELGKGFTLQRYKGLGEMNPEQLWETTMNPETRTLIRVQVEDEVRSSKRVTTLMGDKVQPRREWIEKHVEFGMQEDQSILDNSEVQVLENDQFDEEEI
Scale for pIC50: -log10 of concentration given in mol/L; no unit attached.

* COc1ccc2nccc(OC[C@@H]3CC[C@@H](NC(=O)c4cc(F)c(Br)c(F)c4)CO3)c2n1 | 6.47

IN: Look up and report measured pIC50 for this entry: COc1ccc2nccc(OC[C@H]3CC[C@H](NCc4cc(F)c(Br)c(F)c4)CC3)c2n1
OUT: 5.51

IN: Look up and report measured pIC50 for this entry: COc1ccc2nccc(CCN3CCC(NC(=O)c4cc(F)c(Br)c(F)c4)CC3)c2n1
OUT: 7.08
